Target: human PDE4D3 (Homo sapiens, UniProt Q08499)
Construct: His6 (C); made in house; host or cells: insect cells (baculovirus, pFastBac)
Sequence (Q08499 186-808): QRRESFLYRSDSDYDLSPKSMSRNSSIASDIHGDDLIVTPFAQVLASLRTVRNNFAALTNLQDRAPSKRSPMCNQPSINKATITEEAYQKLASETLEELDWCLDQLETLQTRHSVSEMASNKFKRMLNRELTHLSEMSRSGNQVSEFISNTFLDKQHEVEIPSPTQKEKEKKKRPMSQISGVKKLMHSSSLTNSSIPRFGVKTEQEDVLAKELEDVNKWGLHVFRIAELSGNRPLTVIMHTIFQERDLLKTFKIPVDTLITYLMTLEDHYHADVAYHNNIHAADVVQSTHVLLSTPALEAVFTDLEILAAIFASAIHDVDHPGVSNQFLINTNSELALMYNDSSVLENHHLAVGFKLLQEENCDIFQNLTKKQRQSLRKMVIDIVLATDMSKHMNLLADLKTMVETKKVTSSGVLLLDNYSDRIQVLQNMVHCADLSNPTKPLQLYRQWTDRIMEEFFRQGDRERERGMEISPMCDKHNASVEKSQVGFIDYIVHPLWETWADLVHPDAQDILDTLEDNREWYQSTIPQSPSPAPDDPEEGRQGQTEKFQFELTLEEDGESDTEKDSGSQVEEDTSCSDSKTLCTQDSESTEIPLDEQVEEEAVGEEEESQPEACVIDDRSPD
Test: PDE4D3 Scintillation Proximity Assay (SPA), inhibition of enzyme activity
Type: biochemical
Conditions: geometric mean of 2-7 determinations unless otherwise indicated (b: ≥8 determinations; c: single determination); 1 μM cAMP, 30 min at 25° C.; read-out: Human PDE4D FL; IC50
Endpoint label: IC50 (nM)
Express the result in nM but write the number alone.

Field: example entries. Status: answers known.
O=C(NC1CC1(F)F)c1nn2cccnc2c1-c1ccc(Cl)cc1 (centres unmarked) [Example 40] :: 2360
Cc1cc(C#N)c(F)cc1-c1c(C(=O)NC2CCC2)nn2cccnc12 [Example 22] :: 8810
CCNC(=O)c1nn2cccnc2c1-c1cc(F)c(C#N)cc1C [Example 16] :: 2510

Please turn your attention to the following entry.
Consider O=C(N[C@@H]1C[C@@H]1F)c1nn2cccnc2c1-c1ccc(Cl)c(F)c1 [Example 28] . Its measured IC50 is 140
